Ref: patent US20210032365A1

The following binders are listed with their measured koff values.
system name: T1, human C1s (human, UniProt P09871 16-688)
T1 construct: also called hC1s; serum-derived human C1s (CompTech)
T1 sequence: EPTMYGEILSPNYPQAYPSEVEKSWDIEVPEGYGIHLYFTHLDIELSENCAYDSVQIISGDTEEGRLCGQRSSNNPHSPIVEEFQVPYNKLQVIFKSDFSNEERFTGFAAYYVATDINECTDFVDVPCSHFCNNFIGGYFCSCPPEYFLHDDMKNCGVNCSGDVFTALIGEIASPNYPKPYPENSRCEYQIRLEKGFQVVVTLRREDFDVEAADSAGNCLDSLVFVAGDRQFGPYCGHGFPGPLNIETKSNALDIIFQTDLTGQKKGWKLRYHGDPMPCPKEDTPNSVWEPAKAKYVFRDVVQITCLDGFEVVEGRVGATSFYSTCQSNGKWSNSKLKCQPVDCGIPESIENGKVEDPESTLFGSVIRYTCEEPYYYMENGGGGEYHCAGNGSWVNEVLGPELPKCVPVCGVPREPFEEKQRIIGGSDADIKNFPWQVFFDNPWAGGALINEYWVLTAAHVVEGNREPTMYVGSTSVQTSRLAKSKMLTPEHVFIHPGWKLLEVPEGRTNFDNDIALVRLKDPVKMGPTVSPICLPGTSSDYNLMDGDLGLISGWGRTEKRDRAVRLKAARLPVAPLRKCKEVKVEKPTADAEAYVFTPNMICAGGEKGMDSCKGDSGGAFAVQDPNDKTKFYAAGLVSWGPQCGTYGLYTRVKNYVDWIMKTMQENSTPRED
test summary: SPR, Ab captured; pH 5.8, 1.2 mM Ca
Report the figure in s⁻¹ without appending any unit label.

Examples from the recorded data:
Given the entry C1_IPN92H0038-SG4GK/IPN93L0021-SK1 (antibody, human IgG4 S228P, kappa, name in Kabat numbering, V domains shown, also called IPN92H0038/IPN93L0021) VH: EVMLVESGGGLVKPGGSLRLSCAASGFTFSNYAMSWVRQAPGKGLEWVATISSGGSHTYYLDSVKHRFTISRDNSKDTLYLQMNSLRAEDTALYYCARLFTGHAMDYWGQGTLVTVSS VL: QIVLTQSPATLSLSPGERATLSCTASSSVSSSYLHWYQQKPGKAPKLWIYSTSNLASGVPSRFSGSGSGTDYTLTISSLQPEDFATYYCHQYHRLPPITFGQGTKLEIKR , report its measured koff. 0.00224

Given the entry C1_IPN92H0033-SG4GK/IPN93L0023-SK1 (antibody, human IgG4 S228P, kappa, name in Kabat numbering, V domains shown, also called IPN92H0033/IPN93L0023) VH: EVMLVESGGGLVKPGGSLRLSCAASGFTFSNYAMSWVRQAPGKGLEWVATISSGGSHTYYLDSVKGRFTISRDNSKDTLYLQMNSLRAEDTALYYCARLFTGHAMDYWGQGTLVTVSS VL: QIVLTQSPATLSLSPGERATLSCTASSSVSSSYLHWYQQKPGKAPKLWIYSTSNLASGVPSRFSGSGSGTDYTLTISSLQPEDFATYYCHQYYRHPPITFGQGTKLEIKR , report its measured koff. 0.00282

Next:
Given the entry C1_IPN009VH2-SG4GK/IPN93L0028-SK1 (antibody, human IgG4 S228P, kappa, name in Kabat numbering, V domains shown, also called IPN009VH2/IPN93L0028) VH: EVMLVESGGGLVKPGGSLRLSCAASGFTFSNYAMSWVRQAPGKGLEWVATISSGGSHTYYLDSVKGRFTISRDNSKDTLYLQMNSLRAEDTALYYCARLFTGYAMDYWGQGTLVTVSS VL: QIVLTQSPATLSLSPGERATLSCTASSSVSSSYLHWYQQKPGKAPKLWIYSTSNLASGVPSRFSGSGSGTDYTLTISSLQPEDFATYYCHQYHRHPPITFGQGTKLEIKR , report its measured koff. 0.00751

Given the entry C1_IPN92H0038-SG4GK/IPN93L0030-SK1 (antibody, human IgG4 S228P, kappa, name in Kabat numbering, V domains shown, also called IPN92H0038/IPN93L0030) VH: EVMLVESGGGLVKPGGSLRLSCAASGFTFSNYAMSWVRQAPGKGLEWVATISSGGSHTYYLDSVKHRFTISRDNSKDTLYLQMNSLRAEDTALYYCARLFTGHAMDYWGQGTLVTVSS VL: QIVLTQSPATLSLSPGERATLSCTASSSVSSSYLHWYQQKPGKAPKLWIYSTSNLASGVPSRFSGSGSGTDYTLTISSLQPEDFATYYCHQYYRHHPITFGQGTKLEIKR , report its measured koff. 0.017

Given the entry C1_IPN92H0038-SG4GK/IPN93L0028-SK1 (antibody, human IgG4 S228P, kappa, name in Kabat numbering, V domains shown, also called IPN92H0038/IPN93L0028) VH: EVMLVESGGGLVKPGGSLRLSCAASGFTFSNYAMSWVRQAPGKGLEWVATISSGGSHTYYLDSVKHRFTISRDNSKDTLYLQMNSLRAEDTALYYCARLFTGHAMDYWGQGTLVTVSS VL: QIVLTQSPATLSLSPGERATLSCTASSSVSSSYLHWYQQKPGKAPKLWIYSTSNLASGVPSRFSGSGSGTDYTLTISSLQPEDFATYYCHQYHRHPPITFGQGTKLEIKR , report its measured koff. 0.00789

Given the entry C1_IPN92H0033-SG4GK/IPN93L0021-SK1 (antibody, human IgG4 S228P, kappa, name in Kabat numbering, V domains shown, also called IPN92H0033/IPN93L0021) VH: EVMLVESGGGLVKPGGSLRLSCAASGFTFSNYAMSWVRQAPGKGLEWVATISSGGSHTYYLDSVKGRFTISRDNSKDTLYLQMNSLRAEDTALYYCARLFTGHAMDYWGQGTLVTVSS VL: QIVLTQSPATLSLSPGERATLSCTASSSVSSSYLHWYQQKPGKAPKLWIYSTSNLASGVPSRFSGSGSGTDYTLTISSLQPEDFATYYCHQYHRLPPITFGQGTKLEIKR , report its measured koff. 0.00293

Given the entry C1_IPN92H0033-SG4GK/IPN93L0029-SK1 (antibody, human IgG4 S228P, kappa, name in Kabat numbering, V domains shown, also called IPN92H0033/IPN93L0029) VH: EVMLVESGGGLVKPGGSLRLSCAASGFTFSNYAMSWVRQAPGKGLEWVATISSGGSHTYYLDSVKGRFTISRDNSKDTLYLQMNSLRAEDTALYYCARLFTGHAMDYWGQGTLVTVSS VL: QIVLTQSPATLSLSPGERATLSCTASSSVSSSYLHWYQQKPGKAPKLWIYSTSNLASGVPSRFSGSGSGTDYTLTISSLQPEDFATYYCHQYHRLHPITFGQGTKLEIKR , report its measured koff. 0.0222

Given the entry C1_IPN92H0026-SG4GK/IPN93L0023-SK1 (antibody, human IgG4 S228P, kappa, name in Kabat numbering, V domains shown, also called IPN92H0026/IPN93L0023) VH: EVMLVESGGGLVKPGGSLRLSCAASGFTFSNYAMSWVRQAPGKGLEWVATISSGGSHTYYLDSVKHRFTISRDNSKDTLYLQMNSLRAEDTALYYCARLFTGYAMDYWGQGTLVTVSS VL: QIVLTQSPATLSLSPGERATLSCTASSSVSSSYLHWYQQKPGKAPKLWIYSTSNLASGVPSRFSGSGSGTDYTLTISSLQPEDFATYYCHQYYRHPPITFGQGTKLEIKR , report its measured koff. 0.00124

Given the entry C1_IPN009VH2-SG4GK/IPN93L0029-SK1 (antibody, human IgG4 S228P, kappa, name in Kabat numbering, V domains shown, also called IPN009VH2/IPN93L0029) VH: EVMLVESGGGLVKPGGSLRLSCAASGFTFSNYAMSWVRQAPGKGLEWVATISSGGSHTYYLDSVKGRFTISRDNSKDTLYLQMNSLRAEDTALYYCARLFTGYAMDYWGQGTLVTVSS VL: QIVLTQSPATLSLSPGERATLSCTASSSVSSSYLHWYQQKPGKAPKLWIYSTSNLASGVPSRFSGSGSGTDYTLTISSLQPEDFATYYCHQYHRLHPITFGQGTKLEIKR , report its measured koff. 0.00857

Given the entry C1_IPN92H0033-SG4GK/IPN93L0028-SK1 (antibody, human IgG4 S228P, kappa, name in Kabat numbering, V domains shown, also called IPN92H0033/IPN93L0028) VH: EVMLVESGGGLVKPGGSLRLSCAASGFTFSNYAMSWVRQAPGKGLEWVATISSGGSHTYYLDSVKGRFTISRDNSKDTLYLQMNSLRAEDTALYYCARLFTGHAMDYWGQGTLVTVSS VL: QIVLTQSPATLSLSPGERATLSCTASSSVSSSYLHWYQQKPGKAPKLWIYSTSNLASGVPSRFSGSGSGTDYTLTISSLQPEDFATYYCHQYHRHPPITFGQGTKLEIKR , report its measured koff. 0.0144
